All values here come from patent US10597391B2.

# TESTED_TARGET: human FXR (NR1H4) (Homo sapiens, UniProt Q96RI1)
# Sequence (Q96RI1 whole entry, the tested form may be a part): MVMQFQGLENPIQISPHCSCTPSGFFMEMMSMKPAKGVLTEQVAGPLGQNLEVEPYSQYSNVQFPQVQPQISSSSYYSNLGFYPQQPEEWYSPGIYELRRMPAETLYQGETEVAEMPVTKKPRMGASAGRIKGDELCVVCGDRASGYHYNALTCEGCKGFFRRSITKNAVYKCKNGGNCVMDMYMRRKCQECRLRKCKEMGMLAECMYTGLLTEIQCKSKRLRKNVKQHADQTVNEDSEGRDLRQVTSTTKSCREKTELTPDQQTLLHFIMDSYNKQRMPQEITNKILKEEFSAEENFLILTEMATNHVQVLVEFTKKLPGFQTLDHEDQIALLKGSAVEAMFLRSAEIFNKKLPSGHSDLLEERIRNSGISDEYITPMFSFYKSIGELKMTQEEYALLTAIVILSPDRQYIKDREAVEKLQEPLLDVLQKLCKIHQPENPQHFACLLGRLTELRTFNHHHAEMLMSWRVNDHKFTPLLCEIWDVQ
# ASSAY: Human FXR (NR1H4) Assay: Gal4 promoter driven luciferase reporter transactivation in CHO cells (Indigo Bioscience kit IB00601)
# Type: cell-based
# EXPERIMENTAL_CONDITIONS: CHO, efficacy normalized to CDCA set as 100%; read-out: Efficacy (%)
PROPERTY: Emax (%)
Field: numeric (%). Do not append units.

The following compounds have reported results that may help.
INSERT INTO assay_data (compound, property, reported) VALUES
  ('O=C(Nc1cccc(-c2nccs2)c1)N1C2CCC1CC(OCc1c(-c3c(Cl)cccc3Cl)noc1C1CC1)C2 (stereo not drawn)', 'Emax', 179),
  ('O=C(O)c1ccc2nc(NC(=O)N3C4CCC3CC(OCc3c(-c5c(Cl)cccc5Cl)noc3C3CC3)C4)sc2c1 (stereo not drawn)', 'Emax', 104),
  ('O=C(Nc1cncc(-c2ccccc2)c1)N1C2CCC1CC(OCc1c(-c3c(Cl)cccc3Cl)noc1C1CC1)C2 (stereo not drawn)', 'Emax', 223),
  ('CCOC(=O)c1cnc2ccc(NC(=O)N3C4CCC3CC(OCc3c(-c5c(Cl)cccc5Cl)noc3C3CC3)C4)cc2c1 (stereo not drawn)', 'Emax', 82),
  ('O=C(NCc1ccc(F)c(F)c1)N1C2CCC1CC(OCc1c(-c3c(Cl)cccc3Cl)noc1C1CC1)C2 (stereo not drawn)', 'Emax', 175),
  ('O=C(O)c1ccc(NC(=O)N2C3CCC2CC(OCc2c(-c4ccccc4OC(F)(F)F)noc2C2CC2)C3)cc1OC(F)(F)F (stereo not drawn)', 'Emax', 76),
  ('O=C(O)CNC(=O)c1ccc(NC(=O)N2C3CCC2CC(OCc2c(-c4c(Cl)cccc4Cl)noc2C2CC2)C3)c(F)c1 (stereo not drawn)', 'Emax', 0),
  ('O=C(Nc1cc(F)cc(F)c1)N1C2CCC1CC(OCc1c(-c3c(Cl)cccc3Cl)noc1C1CC1)C2 (stereo not drawn)', 'Emax', 292),
  ('CC(C)S(=O)(=O)NC(=O)c1ccc(NC(=O)N2C3CCC2CC(OCc2c(-c4ccccc4OC(F)(F)F)noc2C2CC2)C3)cc1 (stereo not drawn)', 'Emax', 236),
  ('CCOC(=O)c1ccc2nc(NC(=O)N3C4CCC3CC(OCc3c(-c5c(Cl)cccc5Cl)noc3C3CC3)C4)sc2c1 (stereo not drawn)', 'Emax', 90);

Suppose we examine the compound O=C(NCc1ccc(-c2ccccc2)cc1)N1C2CCC1CC(OCc1c(-c3c(Cl)cccc3Cl)noc1C1CC1)C2 (stereo not drawn) ; what Emax value has been reported?
139

Suppose we examine the compound O=C(O)c1cc(F)c(NC(=O)N2C3CCC2CC(OCc2c(-c4c(Cl)cccc4Cl)noc2C2CC2)C3)cc1-c1ccccc1 (stereo not drawn) ; what Emax value has been reported?
129

Suppose we examine the compound O=C(O)c1ccc(NC(=O)N2C3CCC2CC(OCc2c(-c4c(F)cccc4F)noc2C2CC2)C3)c(F)c1 (stereo not drawn) ; what Emax value has been reported?
32

Suppose we examine the compound O=C(O)c1ccc(NC(=O)N2C3CCC2CC(OCc2c(-c4c(Cl)cccc4Cl)noc2C2CC2)C3)cc1-c1ccc(C(F)(F)F)nc1 (stereo not drawn) ; what Emax value has been reported?
133

Suppose we examine the compound CC1(S(=O)(=O)NC(=O)c2ccc(NC(=O)N3C4CCC3CC(OCc3c(-c5c(Cl)cccc5Cl)noc3C3CC3)C4)cc2-c2cncnc2)CC1 (stereo not drawn) ; what Emax value has been reported?
49

Suppose we examine the compound O=C(O)c1ccc(NC(=O)N2C3CCC2CC(OCc2c(-c4ccccc4C4CC4)noc2C2CC2)C3)c(F)c1 (stereo not drawn) ; what Emax value has been reported?
43

Suppose we examine the compound COC(=O)c1ccc(NC(=O)N2C3CCC2CC(OCc2c(-c4c(Cl)cccc4Cl)noc2C2CC2)C3)c(C2CC2)c1 (stereo not drawn) ; what Emax value has been reported?
54

Suppose we examine the compound O=C(O)c1ccc(NC(=O)N2C3CCC2CC(OCc2c(-c4ccccc4C4CC4)noc2C2CC2)C3)cc1-c1ccccc1 (stereo not drawn) ; what Emax value has been reported?
112
